This collection of values is drawn from ChEMBL document CHEMBL4007497.

- target.desc: P2Y purinoceptor 12 (Homo sapiens)
- Sequence (Q9H244 whole entry): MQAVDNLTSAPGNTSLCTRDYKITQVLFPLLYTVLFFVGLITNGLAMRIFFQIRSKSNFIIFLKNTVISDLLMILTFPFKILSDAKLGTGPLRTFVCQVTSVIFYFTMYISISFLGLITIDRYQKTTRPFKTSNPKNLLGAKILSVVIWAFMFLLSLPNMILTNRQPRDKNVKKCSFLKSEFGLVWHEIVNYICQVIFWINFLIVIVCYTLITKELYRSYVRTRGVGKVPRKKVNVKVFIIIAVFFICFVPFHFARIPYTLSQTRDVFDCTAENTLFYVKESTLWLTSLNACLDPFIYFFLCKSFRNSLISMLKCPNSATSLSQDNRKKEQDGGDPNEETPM
- assay.explanation: Antagonist activity at human P2Y12 receptor expressed in CHO cells assessed as inhibition of 2-MeSADP-induced beta-arrestin translocation preincubated for 30 mins followed by 2-MeSADP addition measured after 90 mins by luminescence-based topcount method
Here the recorded IC50 is given for each entry.
Give just the number in nM; leave the unit off.

Cc1cc(Nc2cc(S(=O)(=O)O)c(N)c3c2C(=O)c2ccccc2C3=O)ccc1O | 60.4
Nc1c(S(=O)(=O)O)cc(Nc2ccccc2)c2c1C(=O)c1ccccc1C2=O | 3120
Nc1c(S(=O)(=O)O)cc(Nc2ccc(SCc3cccnc3)cc2)c2c1C(=O)c1ccccc1C2=O | 3590
Cc1ccc(Sc2ccc(Nc3cc(S(=O)(=O)O)c(N)c4c3C(=O)c3ccccc3C4=O)cc2)cc1C | 2340
Cc1ccc(Sc2ccc(Nc3cc(S(=O)(=O)O)c(N)c4c3C(=O)c3ccccc3C4=O)cc2)c(C)c1 | 2410

Field: next compound
Entry under review: Cc1ccc(C)c(Sc2ccc(Nc3cc(S(=O)(=O)O)c(N)c4c3C(=O)c3ccccc3C4=O)cc2)c1 . Reported IC50?
2960

###

Recorded log10(IC50) values for a group of compounds are listed next.
- target.desc: P2Y purinoceptor 4 (Homo sapiens)
- assay.explanation: Antagonist activity at human P2Y4 receptor transfected in human 1321N1 cells assessed as inhibition of UTP-activated intracellular calcium mobilization preincubated for 30 mins followed by UTP addition by fluo-4-dye based fluorescence assay
Please be aware that the numbers have been log10-transformed from IC50 in µM.

Some compounds with recorded log10(IC50):
COc1ccc(Nc2cc(S(=O)(=O)O)c(N)c3c2C(=O)c2ccccc2C3=O)cc1 | 0.41
Cc1ccc(C)c(Nc2cc(S(=O)(=O)O)c(N)c3c2C(=O)c2ccccc2C3=O)c1 | 1.05
COc1cc(Nc2cc(S(=O)(=O)O)c(N)c3c2C(=O)c2ccccc2C3=O)ccc1F | 0.19
Nc1c(S(=O)(=O)O)cc(Nc2cccc(F)c2)c2c1C(=O)c1ccccc1C2=O | 0.14
Cc1ccc(Sc2ccc(Nc3cc(S(=O)(=O)O)c(N)c4c3C(=O)c3ccccc3C4=O)cc2)cc1C | -0.32
Nc1c(S(=O)(=O)O)cc(Nc2cccc(Cl)c2)c2c1C(=O)c1ccccc1C2=O | 0.37

As a next step, examine the compound that follows.
Reported log10(IC50) for P2Y purinoceptor 4 (Homo sapiens), given Nc1c(S(=O)(=O)O)cc(Nc2ccc(Cc3ccccc3)cc2)c2c1C(=O)c1ccccc1C2=O ?
0.54

###

pIC50 values by entry
- target.desc: P2Y purinoceptor 4 (Homo sapiens, UniProt P51582)
- Sequence (P51582 whole entry): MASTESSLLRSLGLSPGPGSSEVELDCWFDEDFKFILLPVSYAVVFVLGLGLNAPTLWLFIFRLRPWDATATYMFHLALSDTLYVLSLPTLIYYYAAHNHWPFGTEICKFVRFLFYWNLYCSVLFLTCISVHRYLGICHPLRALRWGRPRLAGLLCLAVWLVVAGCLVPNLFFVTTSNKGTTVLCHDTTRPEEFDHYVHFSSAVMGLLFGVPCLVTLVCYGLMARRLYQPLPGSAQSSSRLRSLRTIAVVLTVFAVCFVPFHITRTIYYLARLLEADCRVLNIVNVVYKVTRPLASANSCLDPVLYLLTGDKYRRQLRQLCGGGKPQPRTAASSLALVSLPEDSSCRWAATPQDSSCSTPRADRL
- assay.explanation: Antagonist activity at human P2Y4 receptor transfected in human 1321N1 cells assessed as inhibition of UTP-activated intracellular calcium mobilization preincubated for 30 mins followed by UTP addition by fluo-4-dye based fluorescence assay
Units for pIC50: none; it is -log10 of a concentration expressed in mol/L.

Example entries and their recorded answers appear below.
Nc1c(S(=O)(=O)O)cc(Nc2cc(F)cc(F)c2)c2c1C(=O)c1ccccc1C2=O | 4.90
Nc1c(S(=O)(=O)O)cc(Nc2ccc(Nc3nc(Cl)nc(Nc4ccc(S(=O)(=O)O)cc4)n3)c(S(=O)(=O)O)c2)c2c1C(=O)c1ccccc1C2=O | 6.20
CCc1ccccc1Nc1cc(S(=O)(=O)O)c(N)c2c1C(=O)c1ccccc1C2=O | 5.45
Nc1c(S(=O)(=O)O)cc(Nc2ccccc2C(=O)O)c2c1C(=O)c1ccccc1C2=O | 5.21

Could you share which pIC50 value was measured for Nc1c(S(=O)(=O)O)cc(Nc2ccc(Nc3ccccc3)cc2)c2c1C(=O)c1ccccc1C2=O ?
5.72

Data request, read-out pIC50, for Cc1cc(C)cc(Nc2cc(S(=O)(=O)O)c(N)c3c2C(=O)c2ccccc2C3=O)c1
5.19

Form field: reported pIC50 of Nc1c(S(=O)(=O)O)cc(Nc2ccc(Br)cc2)c2c1C(=O)c1ccccc1C2=O
5.48

I am curious: what pIC50 value has been reported for Nc1c(S(=O)(=O)O)cc(NCCc2ccccc2)c2c1C(=O)c1ccccc1C2=O ?
5.14

I would be grateful if you could share the reported pIC50 for Nc1c(S(=O)(=O)O)cc(Nc2cc(Cl)ccc2C(=O)O)c2c1C(=O)c1ccccc1C2=O .
5.56
